Measured TGI accompanies every entry in the list below.
System: NCI-H460 lung
Experiment: NCI tumour cell line growth inhibition, 48 h

// TGI value for CN(C)CCCNc1ncnc2c1ncn2C1OC(CO)C(O)C1O (stereo not drawn) : > 100 µM

// TGI value for C/C(=N\NC(=S)NCCCCNC(=S)N/N=C(\C)c1ccccn1)c1ccccc1 : 4.71 µM

// TGI value for CCOC(=O)NC/C=C/COC1CCCCO1 (stereo not drawn) : > 100 µM

// TGI value for NC(=O)c1ncn(C2OC(CO)C(O)C2O)c1NC=O (stereo not drawn) : > 100 µM

// TGI value for N#Cc1ccc(CSC2=C(c3ccc(Cl)cc3)S/C(=C3\SC(SCc4ccc(C#N)cc4)=C(c4ccc(Cl)cc4)S3)S2)cc1 : > 100 µM

// TGI value for C#CCN(Cc1nc2cc(C(F)(F)F)ccc2nc1-c1ccccc1)c1ccc(C)cc1 : > 100 µM

// TGI value for COc1ccc2c(c1)CC[C@@H]1[C@@H]2CC[C@]2(C)c3c(cc(C(=O)O)c4sccc34)C[C@@H]12 : 37.7 µM

// TGI value for CO[C@H]1C[C@H](O[C@H]2CC[C@]3(C=O)[C@H]4CC[C@]5(C)[C@@H](C6=CC(=O)OC6)CC[C@]5(O)[C@@H]4CC[C@]3(O)C2)O[C@H](C)[C@H]1O[C@@H]1O[C@H](CO)[C@@H](O)[C@H](O)[C@H]1O : 7.71e-05 µM

New cases:
// TGI value for COc1ccc(-c2c3c(n(C4OC(COC(C)=O)C(OC(C)=O)C(OC(C)=O)C4OC(C)=O)c(=S)c2C#N)CCC3)cc1 (stereo not drawn) : > 100 µM

// TGI value for CC1(C)C2CC(O)C1CCC2=O (stereo not drawn) : > 100 µM

// TGI value for CC/C(=C(/c1ccc(O)cc1)c1ccc(OCCN)cc1)c1ccccc1 : 3.95 µM

Hey, just so you know, these numbers are from PubChem BioAssay (NCI).
